System: SNB-19 CNS
protocol-description: NCI-60 one-dose screen, 48 h (100 = growth as untreated, 0 = no growth, -100 = all killed)
assay-setup: 10 µM unless noted
The panel holds about 83,000 compounds, 20% with a hit somewhere; the sample as a whole holds those more often.
# reported growth; entries follow
Could you give me the number in %? Just the number is fine.

Completed entries (count: 5):
compound	growth [%]
Cn1ncc2c(Nc3ccccc3Cl)nc(Cl)nc21	114
CN(C)C(=O)OCc1nc2c(N3CCOCC3)nc(-c3ccccc3)nc2n1C	13.9
CCC1(CC)NC(=O)c2c(c3ccc(Cl)c(Cl)c3n2C)C1C#N (configuration not stated)	85
Cn1c(COC(=O)NCCN2CCOCC2)nc2c(N3CCOCC3)nc(-c3ccccc3)nc21	48.7
COc1ccc(Cn2nc(-c3cc(OC)c(OC)c(OC)c3)c3c2CCc2cnoc2-3)cc1OC	65.4

The reported growth of the compound `CC(=O)OCC(=O)[C@@]1(O)CC[C@H]2[C@@H]3CC(=C(Br)Br)C4=CC(=O)CC[C@]4(C)[C@H]3C(=O)C[C@@]21C` was 92.6

Per the records, this compound ( `c1ccc(Cn2nc3c(c2-c2ccccc2)-c2oncc2CC3)cc1` ) has growth equal to 102

###

Test system: A498 renal
protocol-description: NCI-60 one-dose screen, 48 h
assay-setup: 10 µM unless noted
The panel holds about 83,000 compounds, 20% with a hit somewhere; the sample as a whole holds those more often. Activity calls are given as the source filed them. Rule for the calls: active = growth percent below 10; inactive = the rest.
Select the correct class. Options are 1 for active, 0 for inactive and nothing else.

molecule	experimental-system	class-assignment
C=C1C(=O)O[C@H]2[C@H]1CC/C(COC(=O)/C=C/c1c[nH]c3ccccc13)=C\CC[C@@]1(C)O[C@@H]21	A498 renal	1
Clc1ccc(C2CC(c3cccc(Nc4ccncc4)c3)=NN2c2ccc(Cl)cc2)cc1 (stereo unspecified)	A498 renal	0
COc1ccc(C(=O)/C=C/c2cn(Cc3ccc(Cl)cc3)c3ccccc23)cc1	A498 renal	1
COc1ccc(-c2cnnc3c(-c4cccc(C(F)(F)F)c4)cnn23)cc1	A498 renal	0
COc1ccc(C(=O)/C=C/c2c(OC)cc(OC)cc2OC)c(OC)c1	A498 renal	0

## Input Recorded call for `Cn1c2c(Cl)c(Cl)ccc2c2cc(N)[nH]c(=O)c21` ?
## Output 0

## Input Dear colleague, could you share the recorded outcome for `O=C1/C(=C/c2ccc(O)cc2)COc2ccc(-c3ccccc3)cc21` when you have a moment?
## Output 0

## Input Test call, this molecule: `Cc1ccc(-c2csc(/N=C3\C(=O)Nc4ccccc43)n2)cc1`
## Output 1

###

Test system: NCI-H226 lung
protocol-description: NCI-60 one-dose screen, 48 h (100 = growth as untreated, 0 = no growth, -100 = all killed)
assay-setup: 10 µM unless noted
About 83,000 compounds went through this panel and 20% of them were active in at least one assay; those are over-represented in the sample as a whole.
// reported growth for each item listed
Report only the number, with the unit % understood.

Consider the worked cases shown below.
molecule	measurement-units	number
COc1ccc(/C=C/C(=O)c2ccc(Nc3ncnc4ccccc34)cc2)cc1OC	%	104
COC(=O)C1=C(C(=O)ONCCN(C)C)C2C=CC1(C(Cc1ccccc1)Nc1ccc(F)cc1)O2 (stereo unspecified)	%	108
C/C(=C(/c1ccccc1)c1ccc(OCC(O)CN2CCOCC2)cc1)c1ccccc1 (stereo unspecified)	%	96.6
COc1ccc(C(=O)/C=C/c2c(OC)cc(OC)cc2OC)c(OC)c1	%	69.5
COc1ccc(C(=O)c2cc3c(N)c(C(=O)Nc4cccc(OC)c4)sc3nc2C)cc1	%	68

Please fill in: growth reported for `O=C(Nc1ccc2ncnc(Nc3ccc(Oc4cccc(F)c4)c(Cl)c3)c2c1)c1ccc(CN2CCOCC2)cc1` = 52

Briefly, growth measured for CC(=O)N1c2ccccc2NC2=C(C(=O)N(Cc3ccccc3)C2(C)C)C1c1ccco1 (stereo unspecified) : 65.7

Note to self: growth recorded for `CC(C)(C#N)N1CCN(c2ccccc2Cl)CC1` was 103

get_value(item= `CN1CCN(c2cnc(C(=O)Nc3cc(F)cc4cccnc34)cn2)CC1` , readout=growth) returns 90.1

growth reading for NC(=O)c1ncn(C2OC(CO)C(O)C2O)n1 (stereo unspecified) : 87.6

###

Test system: HCT-116 colon
protocol-description: NCI-60 one-dose screen, 48 h
assay-setup: 10 µM unless noted
This is part of a sample that, as a whole, favours compounds with a hit. Of some 83,000 tested, about 20% had one in any assay. The source made the active and inactive calls. Rule for the calls: active = growth percent below 10; inactive = the rest.
# valid calls are t for active, f for inactive; nothing else

compound	class-assignment
CCCNC(=O)Oc1ccc(/C(=C(\C)c2ccccc2)c2ccc(OCCN3CCCCC3)cc2)cc1	f

## Input Could you please tell me the result logged for `O=C1NC(=O)C(=Cc2cn(Cc3ccccn3)c3ccccc23)C(=O)N1` in this assay?
## Output f

## Input What call does the record list for `COc1ccc(C2=C(c3ccccc3)c3ccc(OC(C)=O)cc3OC2(C)C)cc1` ?
## Output f

## Input Answer briefly: the call reported for CCOC(=O)C1CC(=O)c2cc(OC)c(OC)cc2C1 (stereo unspecified) in this assay.
## Output f

###

Tested on: LOX IMVI melanoma
protocol-description: NCI-60 one-dose screen, 48 h (100 = growth as untreated, 0 = no growth, -100 = all killed)
assay-setup: 10 µM unless noted
This is part of a sample that, as a whole, favours compounds with a hit. Of some 83,000 tested, about 20% had one in any assay.
Quick list: growth per entry.
Report the figure in % without appending any unit label.

See these solved cases before continuing.
line-notation	growth [%]
COc1ccncc1C#Cc1cncc(C(=O)Nc2ccc(CN3CCN(C)CC3)c(C(F)(F)F)c2)c1	-6.87
CCNNC(=O)[C@@H]1[C@H](c2cc(OC)c(OC)c(OC)c2)c2cc3c(cc2[C@H](O)[C@H]1CO)OCO3	14.4
O=C(Nc1nc2ccc(S(=O)(=O)Nc3ccc(C4(C(F)(F)F)CC4)cc3)cc2[nH]1)c1cnccn1	38.3
OC1(c2ccc(Cl)c(C(F)(F)F)c2)CCN(CCCC(c2ccc(F)cc2)c2ccc(F)cc2)CC1	-96.1

Noted for `O=C(N/N=C/c1ccc(O)c(O)c1)c1sc2ccccc2c1Cl` : its growth reads 68.7

###

Test system: A498 renal
protocol-description: NCI-60 one-dose screen, 48 h
assay-setup: 10 µM unless noted
This is part of a sample that, as a whole, favours compounds with a hit. Of some 83,000 tested, about 20% had one in any assay. The source made the active and inactive calls. Rule for the calls: active = growth percent below 10; inactive = the rest.
Hi! Could you answer with just one of these? active, inactive

Recorded results for 2 compounds are shown here.
compound	class-assignment
CN1CCN(c2cnc(C(=O)Nc3cc(F)cc4cccnc34)cn2)CC1	inactive
c1ccc(CCSc2ncnc3nc[nH]c23)cc1	inactive

## Input Returns: the outcome recorded for `C=C(C)[C@H]1CC/C(C)=C/CC[C@]2(C)O[C@H]2CC/C(COC(=O)[C@@H](OC(C)=O)[C@H](NC(=O)c2ccccc2)c2ccccc2)=C\[C@@H]1O` in this assay.
## Output inactive

## Input Could you check what this test reported for `Nc1ccccc1NC(=O)c1ccc(CN2CCC/C(=C\c3cccc(Cl)c3)C2=O)cc1` ?
## Output active

## Input For this compound, state the assay outcome: `CCN(CC)CCSCCCNc1c(C)cnc2cc(Cl)ccc12`
## Output inactive

## Input For this compound, state the assay outcome: `CCN(CCNc1cc(OC)cc2cccnc12)CCc1ccccc1`
## Output inactive

## Input Look up the recorded call for CN(Cc1ccccc1)c1nc(Cl)c(C2CC(c3ccc(Cl)cc3)=Cc3[nH][nH]c(=O)c32)s1 (centres undefined) in this test.
## Output inactive

## Input Please indicate how the test categorized `c1cnc2nc3c(cc2c1)oc1ccccc13` .
## Output inactive

## Input For CC(C)Cc1ccc(C(C)C(=O)NCc2ccc(Cn3c(=O)sn(-c4ccc(Cl)cc4)c3=O)cc2)cc1 (centres undefined) , which call appears in the assay record?
## Output inactive

## Input Please let me know the test result on file for `O=C(Nc1cccc(Cl)c1)Oc1c(Br)c(Br)c(Br)c(Br)c1Br` .
## Output inactive

## Input Could you please tell me the result logged for `COc1cc2nnn3c4ncccc4c(N=O)c3c2cc1OC` in this assay?
## Output inactive

## Input Record lookup: outcome of this test for `C(=N\Nc1ncc(-c2cc3cc4c(cc3o2)OCO4)s1)/c1c[nH]c2ccccc12` ?
## Output active

## Input I would be grateful if you could indicate the recorded call for COc1cc(C2CC(c3cccc(Nc4ccncc4)c3)=NN2c2ccccc2)cc(OC)c1OC (centres undefined) .
## Output inactive

## Input Returns: the outcome recorded for `[2H]C1([2H])NC([2H])([2H])C([2H])([2H])N(c2ccc(Nc3ncc4cc(C(=O)N(C)C)n(C5CCCC5)c4n3)nc2)C1([2H])[2H]` in this assay.
## Output inactive

## Input Please share the test call associated with `O=C(Nc1ccc2ncnc(Nc3ccc(Oc4cccc(F)c4)c(Cl)c3)c2c1)c1ccc(CN2CCOCC2)cc1` .
## Output inactive

## Input Recorded call for `O=C(CNCCO)Nc1ccc2ncnc(Nc3ccc(OCc4cccc(F)c4)c(Cl)c3)c2c1` ?
## Output inactive

## Input // param item: `Nc1ncc(C#Cc2cncc(NC(=O)c3cccc(C(F)(F)F)c3)c2)c2cccnc12` ; yields the recorded call
## Output inactive

## Input Name the outcome recorded for `Cn1c(COC(=O)NCCN2CCOCC2)nc2c(N3CCOCC3)nc(-c3ccccc3)nc21` in the assay.
## Output inactive

## Input Recorded call for `O=C1NC(=S)NC(=O)C1=Cc1cccc(C=C2C(=O)NC(=S)NC2=O)c1` ?
## Output inactive

Ref: PubChem BioAssay (NCI)
